# Experiment Notes: Solubility estimated by solvent aliquot addition at ambient temperature
# Assay type: physicochemical
# Condition Label: organic solvent or mixture, thermodynamic from solid, MIBK
Measurement Name: solubility (µg/mL)
Respond numerically; units are µg/mL and should not be typed.

What does the record list as solubility for Cc1cc(Nc2ncnn3ccc(C4CCN(C(=O)/C=C/CN(C)C)CC4)c23)ccc1Oc1ccn2ncnc2c1 [Compound 1 Form A] ? 3000

====

# Experiment Notes: Solubility estimated by solvent aliquot addition at ambient temperature
# Assay type: physicochemical
# Condition Label: organic solvent or mixture, thermodynamic from solid, Acetone
Measurement Name: solubility (mg/mL)
Respond numerically; units are mg/mL and should not be typed.

What does the record list as solubility for Cc1cc(Nc2ncnn3ccc(C4CCN(C(=O)/C=C/CN(C)C)CC4)c23)ccc1Oc1ccn2ncnc2c1 [Compound 1 Form A] ? 15

====

# Experiment Notes: Solubility estimated by solvent aliquot addition at ambient temperature
# Type: physicochemical
# Condition Label: organic solvent or mixture, thermodynamic from solid, EtOAc
# Description: Solubilities were estimated by solvent aliquot addition at ambient temperature and reported to the nearest whole number; if complete dissolution was achieved by one aliquot addition, the value is reported as “>”; if solids were present, the value is reported as “<”. The actual solubility may be larger than the value calculated because of the use of solvent aliquots that were too large or due to a slow rate of dissolution.
Measurement Name: solubility (µg/mL)
Respond numerically; units are µg/mL and should not be typed.

What does the record list as solubility for Cc1cc(Nc2ncnn3ccc(C4CCN(C(=O)/C=C/CN(C)C)CC4)c23)ccc1Oc1ccn2ncnc2c1 [Compound 1 Form A] ? 3000

====

# Experiment Notes: Solubility estimated by solvent aliquot addition at ambient temperature
# Assay type: physicochemical
# Condition Label: organic solvent or mixture, thermodynamic from solid, 20:80 MeOH/EtOAc v/v
Measurement Name: solubility

What does the record list as solubility for Cc1cc(Nc2ncnn3ccc(C4CCN(C(=O)/C=C/CN(C)C)CC4)c23)ccc1Oc1ccn2ncnc2c1 [Compound 1 Form A] ? > 51 mg/mL

====

# Experiment Notes: Solubility estimated by solvent aliquot addition at ambient temperature
# Type: physicochemical
# Condition Label: organic solvent or mixture, thermodynamic from solid, 50:50 DMAc/toluene v/v
Measurement Name: solubility

What does the record list as solubility for Cc1cc(Nc2ncnn3ccc(C4CCN(C(=O)/C=C/CN(C)C)CC4)c23)ccc1Oc1ccn2ncnc2c1 [Compound 1 Form A] ? > 28 mg/mL

====

# Experiment Notes: Solubility estimated by solvent aliquot addition at ambient temperature
# Assay type: physicochemical
# Condition Label: organic solvent or mixture, thermodynamic from solid, dioxane
Measurement Name: solubility (mg/mL)
Respond numerically; units are mg/mL and should not be typed.

What does the record list as solubility for Cc1cc(Nc2ncnn3ccc(C4CCN(C(=O)/C=C/CN(C)C)CC4)c23)ccc1Oc1ccn2ncnc2c1 [Compound 1 Form A] ? 32

====

# Experiment Notes: Solubility estimated by solvent aliquot addition at ambient temperature
# Assay type: physicochemical
# Condition Label: aqueous with cosolvent or surfactant or cyclodextrin, thermodynamic from solid, 50:50 ACN/water v/v
Measurement Name: solubility

What does the record list as solubility for Cc1cc(Nc2ncnn3ccc(C4CCN(C(=O)/C=C/CN(C)C)CC4)c23)ccc1Oc1ccn2ncnc2c1 [Compound 1 Form A] ? > 72 mg/mL

====

# Experiment Notes: Solubility estimated by solvent aliquot addition at ambient temperature
# Type: physicochemical
# Condition Label: aqueous with cosolvent or surfactant or cyclodextrin, thermodynamic from solid, 20:80 MeOH/water v/v
Measurement Name: solubility

What does the record list as solubility for Cc1cc(Nc2ncnn3ccc(C4CCN(C(=O)/C=C/CN(C)C)CC4)c23)ccc1Oc1ccn2ncnc2c1 [Compound 1 Form A] ? < 1000 µg/mL

====

# Experiment Notes: Solubility estimated by solvent aliquot addition at ambient temperature
# Format: physicochemical
# Condition Label: organic solvent or mixture, thermodynamic from solid, toluene
Measurement Name: solubility

What does the record list as solubility for Cc1cc(Nc2ncnn3ccc(C4CCN(C(=O)/C=C/CN(C)C)CC4)c23)ccc1Oc1ccn2ncnc2c1 [Compound 1 Form A] ? < 1000 µg/mL

====

# Experiment Notes: Solubility estimated by solvent aliquot addition at ambient temperature
# Assay type: physicochemical
# Condition Label: organic solvent or mixture, thermodynamic from solid, DCM
Measurement Name: solubility

What does the record list as solubility for Cc1cc(Nc2ncnn3ccc(C4CCN(C(=O)/C=C/CN(C)C)CC4)c23)ccc1Oc1ccn2ncnc2c1 [Compound 1 Form A] ? > 88 mg/mL
